Kindly supply the reported pEC50 values for the records listed here.
- Experimental target: mu opioid receptor (MOR) (Homo sapiens)
- Test details: PathHunter β-arrestin recruitment assay, PAM mode with EC20 endomorphin-1
- Assay type: cell-based
- Run conditions: β-arrestin; EC20 EM-1 agonism of MOR; read-out: RC50 (the source's name)
// returns pEC50 (minus log10 of molar concentration), number only

Given Fc1cnc(Cl)nc1N1CCCCC1c1cccc(C(F)(F)F)n1 (stereo not shown) , report its pEC50 on mu opioid receptor (MOR) (Homo sapiens).
5.99

Given Fc1cnc(Cl)nc1N1CCCCC1c1cccc(C(F)(F)F)c1 (single isomer, unassigned) , report its pEC50 on mu opioid receptor (MOR) (Homo sapiens).
6.48

Given Fc1ccc(Cl)cc1CN1CCCCC1c1cccc(C(F)(F)F)n1 (stereo not shown) , report its pEC50 on mu opioid receptor (MOR) (Homo sapiens).
6.44

Given COc1ccc(C2CCCCN2S(=O)(=O)c2ccc(Cl)cc2)cc1Br (single isomer, unassigned) , report its pEC50 on mu opioid receptor (MOR) (Homo sapiens).
5.60

* * *

- Experimental target: MOR (Homo sapiens)
- Sequence (P35372 whole entry): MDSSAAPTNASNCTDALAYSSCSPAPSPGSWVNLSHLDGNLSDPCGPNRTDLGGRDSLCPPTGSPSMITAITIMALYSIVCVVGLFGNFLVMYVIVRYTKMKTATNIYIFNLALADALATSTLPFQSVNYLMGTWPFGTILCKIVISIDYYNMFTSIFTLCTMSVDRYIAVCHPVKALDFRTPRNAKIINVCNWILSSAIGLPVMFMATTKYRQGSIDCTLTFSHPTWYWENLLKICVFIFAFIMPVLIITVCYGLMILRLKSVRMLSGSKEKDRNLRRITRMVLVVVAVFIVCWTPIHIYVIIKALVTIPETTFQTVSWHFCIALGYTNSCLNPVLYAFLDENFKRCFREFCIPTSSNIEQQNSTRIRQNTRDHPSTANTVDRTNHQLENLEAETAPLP
- Test details: cell-based
- Run conditions: β-arrestin; EC20 Oxycodone agonism of MOR
Lab note: anything with Max. Response at or over 300 counts as 1; the rest go in 0.

Given the entry Fc1cnc(Cl)nc1N1CCCCC1c1cccc(C(F)(F)F)c1 (single isomer, unassigned) [compound 8] , answer whether its Max. Response meets or surpasses 300.
1

Given the entry COc1ccc(C2CCCCN2S(=O)(=O)c2ccc(Cl)cc2)cc1Br (single isomer, unassigned) , answer whether its Max. Response meets or surpasses 300.
1

Given the entry Fc1ccc(Cl)cc1CN1CCCCC1c1cccc(C(F)(F)F)n1 (centres unmarked) , answer whether its Max. Response meets or surpasses 300.
0

Given the entry Fc1cnc(Cl)nc1N1CCCCC1c1cccc(C(F)(F)F)n1 (centres unmarked) , answer whether its Max. Response meets or surpasses 300.
0

* * *

- Experimental target: UniProt:P35372
- Test details: PathHunter β-arrestin recruitment assay, PAM mode with EC20 endomorphin-1
- Assay type: cell-based
- Run conditions: EM1-mediated MOR agonism; read-out: RC50 for β-arrestin recruitment
Attribute measured: pEC50
// returns pEC50 (minus log10 of molar concentration), number only

Look up and state reported pEC50 for Fc1cnc(Cl)nc1N1CCCCC1c1cccc(C(F)(F)F)c1 (single isomer, unassigned)
6.44

* * *

- Experimental target: mu opioid receptor (MOR) (Homo sapiens)
- Test details: PathHunter β-arrestin recruitment assay, PAM mode with EC20 endomorphin-1
- Type: cell-based
- Run conditions: β-arrestin recruitment; read-out: β-arr. EC50
pEC50: −log10 of the molar value.
Kindly supply the reported pEC50 values for the records listed here.

Look up and state reported pEC50 for FC(F)(F)c1cccc(C2CCCCN2c2nccc(Cl)n2)c1 (centres unmarked)
< 5.68

Look up and state reported pEC50 for CC1CCN(S(=O)(=O)c2ccc(Cl)cc2)C1c1ccc2c(c1)OCO2 (mixture of isomers)
< 5.68

Look up and state reported pEC50 for Fc1ccc(Cl)nc1C1CCCCN1c1nc(Cl)ncc1F (centres unmarked)
> 6.15

Look up and state reported pEC50 for O=S(=O)(Cc1ccccc1)N1C2CCC(C2)C1c1ccc(F)c(Br)c1 (centres unmarked)
< 5.68

Look up and state reported pEC50 for Fc1ccc(C2CCCCN2Cc2ccnc(Cl)c2)cc1Cl (centres unmarked)
5.68 to 6.15

* * *

- Experimental target: mu opioid receptor (MOR) (Homo sapiens)
- Test details: PathHunter β-arrestin recruitment assay, PAM mode with EC20 endomorphin-1
- Type: cell-based
- Run conditions: β-arrestin recruitment; read-out: β-arr. EC50
Attribute measured: EC50

Look up and state reported EC50 for COc1ccc(C2CCCCN2S(C)(=O)=O)cc1Br (stereo not drawn)
> 2100 nM

Look up and state reported EC50 for FC(F)(F)c1cccc(C2CCCCN2Cc2cncc(Cl)c2)n1 (stereo not drawn)
> 2100 nM

Look up and state reported EC50 for O=S1(=O)CCN(c2nc(Cl)ncc2F)C(c2cc(F)cc(C(F)(F)F)c2)C1 (racemic)
> 2100 nM

Look up and state reported EC50 for O=S(=O)(c1cccc(Cl)c1)N1CCCCC1c1cccc(C(F)(F)F)c1 (stereo not drawn)
> 2100 nM

Look up and state reported EC50 for OC1Cc2ccccc2C1N1CCCCC1c1ccc(F)c(Cl)c1 (stereo not drawn)
> 2100 nM

Look up and state reported EC50 for Fc1cnc(Cl)nc1N1CCCCC1c1cnccc1C(F)(F)F (stereo not drawn)
< 700 nM

Look up and state reported EC50 for Fc1ccc(C2CCCCN2Cc2cc(Cl)ccc2F)cc1 (stereo not drawn)
700 to 2100 nM

Look up and state reported EC50 for COc1ccc(C2CCCCN2S(=O)(=O)c2ccc(C)cc2)cc1Br (stereo not drawn)
> 2100 nM

Look up and state reported EC50 for Cc1cncc(C2CCCCN2c2nc(Cl)ncc2F)c1 (stereo not drawn)
< 700 nM

* * *

Kindly supply the reported EC50 values for the records listed here.
- Experimental target: mu opioid receptor (MOR) (Homo sapiens)
- Test details: PathHunter β-arrestin recruitment assay, PAM mode with EC20 endomorphin-1
- Type: cell-based
- Run conditions: β-arrestin recruitment; read-out: β-arr. EC50

Given Fc1ccc(C2CCCCN2c2nc(Cl)ncc2F)cc1C(F)(F)F (single isomer, unassigned) [compound 422] , report its EC50 on mu opioid receptor (MOR) (Homo sapiens).
< 700 nM

Given O=S(=O)(c1ccc(Cl)cc1)N1CCCCC1c1ccc2c(c1)OCO2 (stereo not drawn) [compound 44] , report its EC50 on mu opioid receptor (MOR) (Homo sapiens).
> 2100 nM

Given Fc1cnc(Cl)nc1N1CCCCC1c1c(C(F)(F)F)ccc(F)c1Br (stereo not drawn) [compound 354] , report its EC50 on mu opioid receptor (MOR) (Homo sapiens).
< 700 nM

* * *

- Experimental target: mu opioid receptor (MOR) (Homo sapiens, UniProt P35372)
- Sequence (P35372 whole entry): as above
- Test details: PathHunter β-arrestin recruitment assay, PAM mode with EC20 endomorphin-1
- Assay type: cell-based
- Run conditions: β-arrestin recruitment; read-out: β-arr. EC50
Attribute measured: EC50

Look up and state reported EC50 for COc1ccc(C2C3CCC(C3)N2S(=O)(=O)c2ccc(Cl)cc2)cc1Br (stereo not drawn)
> 2.1 µM

Look up and state reported EC50 for O=S(=O)(c1ccc(Cl)cc1)N1CCCCC1c1ccnc(F)c1 (racemic)
> 2.1 µM

Look up and state reported EC50 for O=S(=O)(c1ccc(Cl)cc1)N1CCCCC1c1cccc(C(F)(F)F)c1 (stereo not drawn)
> 2.1 µM

Look up and state reported EC50 for CCN(CC)c1ncc(F)c(N2CCCCC2c2cccc(C(F)(F)F)c2)n1 (stereo not drawn)
> 2.1 µM

Look up and state reported EC50 for Fc1ccc(C2CC(C(F)(F)F)CN2c2nc(Cl)ncc2F)cc1Cl (stereo not drawn)
> 2.1 µM

Look up and state reported EC50 for Fc1cnc(Cl)nc1N1CCCCC1c1ccn2nncc2c1 (stereo not drawn)
< 0.7 µM

Look up and state reported EC50 for O=S(=O)(c1ccc(Cl)cc1)N1CCCCC1c1ccc(Cl)cc1 (racemic)
> 2.1 µM

Look up and state reported EC50 for [N-]=[N+]=Nc1ccc(N2CCCCC2c2ccc(F)c(Cl)c2)cc1 (stereo not drawn)
> 2.1 µM

Look up and state reported EC50 for O=S(=O)(c1ccc(Cl)cc1)N1CCCCC1c1ccc(F)cc1 (racemic)
0.7 to 2.1 µM

Look up and state reported EC50 for Fc1cnc(Cl)nc1N1CCCCC1c1cncc(C(F)(F)F)c1 (stereo not drawn)
< 0.7 µM

Look up and state reported EC50 for FC(F)(F)c1cccc(C2CCCCN2Cc2cccc(Br)c2)n1 (stereo not drawn)
< 0.7 µM

Look up and state reported EC50 for Oc1nccc(N2CCCCC2c2cccc(C(F)(F)F)c2)n1 (stereo not drawn)
< 0.7 µM

Look up and state reported EC50 for CC1CCN(S(=O)(=O)c2ccc(Cl)cc2)C1c1ccc(F)c(Cl)c1 (mixture of isomers)
0.7 to 2.1 µM

Look up and state reported EC50 for Fc1cnc(Cl)nc1N1CCCCC1c1ccnc2ccccc12 (stereo not drawn)
> 2.1 µM

Look up and state reported EC50 for CC1CC(c2cccc(C(F)(F)F)c2)N(c2nc(Cl)ncc2F)C1 (stereo not drawn)
> 2.1 µM

Look up and state reported EC50 for COc1ccc(C2CCN2S(=O)(=O)c2ccc(Cl)cc2)cc1Br (stereo not drawn)
> 2.1 µM

Look up and state reported EC50 for FC(F)(F)c1cccc(C2CCCCN2Cc2cccc(Cl)n2)n1 (stereo not drawn)
> 2.1 µM

Look up and state reported EC50 for Fc1cnc(Cl)nc1N1CCCCC1c1cc(Cl)ccn1 (stereo not drawn)
< 0.7 µM

Look up and state reported EC50 for Fc1cnc(Cl)nc1N1CCCCC1c1cccc(Cl)c1 (stereo not drawn)
0.7 to 2.1 µM

Look up and state reported EC50 for Fc1cnc(Cl)nc1N1C2CCC(C2)C1c1cccc(C(F)(F)F)n1 (stereo not drawn)
> 2.1 µM

Look up and state reported EC50 for Fc1cnc(Cl)nc1N1CCCCCC1c1cccc(C(F)(F)F)n1 (stereo not drawn)
> 2.1 µM

Look up and state reported EC50 for Fc1cc(C2COCCN2c2nc(Cl)ncc2F)cc(C(F)(F)F)c1 (single isomer, unassigned) [Compound 344]
< 0.7 µM

Look up and state reported EC50 for FC(F)(F)c1cccc(C2CCCCN2Cc2cc(Cl)ccn2)n1 (stereo not drawn)
> 2.1 µM

Look up and state reported EC50 for Fc1cnc(Cl)nc1N1CCCCC1c1cncc(Cl)n1 (stereo not drawn)
> 2.1 µM

Look up and state reported EC50 for COc1ccc(C2N(S(=O)(=O)c3ccc(Cl)cc3)CCC2(F)F)cc1Br (single isomer, unassigned) [Compound 110]
> 2.1 µM

Look up and state reported EC50 for Fc1cnc(Cl)nc1N1CCCCC1c1ccc(Cl)c(C(F)(F)F)c1 (stereo not drawn) [compound 128]
< 0.7 µM

Look up and state reported EC50 for CC1CCN(S(=O)(=O)c2ccc(Cl)cc2)C1c1ccc(F)c(C(F)(F)F)c1 (mixture of isomers)
< 0.7 µM
